Below, each entry is listed alongside its reported kon.
Molecular target: T1, cynomolgus monkey BCMA (cynomolgus monkey, UniProt A0A2K5UD97 1-53)
T1 construct: Soluble analyte in SPR; construct not described; also called cyBCMA; Cyno BCMA
T1 sequence (A0A2K5UD97 entry or part of it): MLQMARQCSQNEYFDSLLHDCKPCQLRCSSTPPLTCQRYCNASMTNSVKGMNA
Experiment: SPR, IgG on chip, cyBCMA analyte
Please append the unit to your numeric answer.

Here is how some binders turned out for kon.
* A02_Rd4_0.6nM_C01 (antibody, V domains shown, IgG; also called P5AC1) VH: EVQLLESGGGLVQPGGSLRLSCAASGFTFSSYAMNWVRQAPGKGLEWVSAILSSGGSTYYADSVKGRFTISRDNSKNTLYLQMNSLRAEDTAVYYCARYWPMDIWGQGTLVTVSS VL: EIVLTQSPGTLSLSPGERATLSCRGGQSVSSSYLAWYQQKPGQAPRLLMYDASIRATGIPDRFSGSGSGTDFTLTISRLEPEDFAVYYCQQYQSWPLTFGQGTKVEIK | 2.39e+06 M⁻¹ s⁻¹
* A02_Rd4_6nM_C01 (antibody, V domains shown, IgG) VH: EVQLLESGGGLVQPGGSLRLSCAASGFTFSSYAMNWVRQAPGKGLEWVSAITASGGSTYYADSVKGRFTISRDNSKNTLYLQMNSLRAEDTAVYYCARYWPMSLWGQGTLVTVSS VL: EIVLTQSPGTLSLSPGERATLSCRASQSVSAYYLAWYQQKPGQAPRLLMYDASIRATGIPDRFSGSGSGTDFTLTISRLEPEDFAVYYCQQYERWPLTFGQGTKVEIK | 1.45e+06 M⁻¹ s⁻¹

Sample A02_Rd4_0.6nM_C10 (antibody, V domains shown, IgG) VH: EVQLLESGGGLVQPGGSLRLSCAASGFTFSSYAMNWVRQAPGKGLEWVSAISGWGGSLPYADSVKGRFTISRDNSKNTLYLQMNSLRAEDTAVYYCARYWPMDSWGQGTLVTVSS VL: EIVLTQSPGTLSLSPGERATLSCRASQSVSAQYLAWYQQKPGQAPRLLMYDASIRATGIPDRFSGSGSGTDFTLTISRLEPEDFAVYYCQQYQRWPLTFGQGTKVEIK — what was its kon?
883000 M⁻¹ s⁻¹
